# TEST_NAME: protease stability score; higher = more stable; yeast display proteolysis, trypsin and chymotrypsin;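 note: log10 excess protease needed over predicted unfolded state with 0 meaning unfolded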
ASSAY_METRIC: protease stability score
No unit in the answer, please; the number alone is enough.

The following sequences have reported results that may help.
DDEKQAHRAFEEWERALRTGNEEDLKRLADENVQVQVGDKQLDGREEVVKWMLDQAERVDHIQIDIKHLRIQNGRVEVNIIIQNNHNGQNQTHTMVVVMRNHNGNLYISDVQRR = 1.31
DEKRMLKVAKEVAEMVRRGDADRVHKYLKEGGRAEVGDTEINGPDQMKEYVKKVKDQGAHNEYKETEYKGDTMTIKTQAHLGDATVDFEVHYQVKGDKVERVEVRFNKEQLKKFKDS = -0.087
DEKEIQKLLEQLMKMFVNGNDEQIKKLGKDDVEATYMDEKVTGPDKVVELVKKYMDLGVKVEYKEEHVEGDKATAKVEADAGGQTVRFHVHYKATGRKMDRVEVQYDETAKKVIKHG = -0.131
DKEIKDLARQVLTAEKTGDPEQFKKLFDPNVHVEVGDKTVTGREEASREFKKSQQELRIDMKSVSVTVEGNSVDIEIHAHLKVNGRPIDMHFRIILTFHNGKVHHVQLQVSEDQLRKMSQ = 0.668
DEHDVRELLKALTTGNEDDMRKMLDKDVTANIGNFRVKGREQQLTLIRRMLERADHLSVTSFSSHNGNVEVDVQVTVDGRRIRYVIRAQAHNGKVNSVRMDVTDHSVEQTLRHLHS = 1.36

We now examine a further sequence.
Sure, the documented protease stability score for DEDTLRKVAETLMKALKTNDSESLKQMMDKDVKMTVGDKKYQGREEAADHLIELAQSVDHLEVRSVDNQGNHASVEFEVQHNGRNDTVHLRFEISNGRVKNVVLHTP is 1.99

###

As shown below, each of these sequences has a reported protease stability score value.
# TEST_NAME: protease stability score; higher = more stable; yeast display proteolysis, trypsin and chymotrypsin;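 note: log10 excess protease needed over predicted unfolded state with 0 meaning unfolded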
Quick one: just the number, no unit, thanks!

Here is how some sequences turned out for protease stability score.
DEEEVKKQLEKLVKMLVKGNKDEIKKFLDPDVEYKVVDEDFQGQQVAEHAYKKIKKVGARMEVKEVRVEGDTAKATYEFTAGGTTVRAEIEAEVHGGRVKHWQVDLDDTAKELIKKG = 0.266
DEEQRLKQVFDTLVKAFEDNDEDQIRDMMDPNVTVRVGDKEVHGRDEVARRVVDERRKVDHVHNDIKDYRVRGNHLVMKIDQVFNHNGETRKQTATMVVKVHDGRAVVETLHYD = 1.09
DDRDRKKQMSKLIEIFKEGDPRKWMELLDENARIQIGDTRIRGREHASDWLKKLRDHVDSISIHDMEVDGNHIRVVIEVVIDGRSAVYKFVVHLKNGKVKHVDVSATSKEHENNMSR = 1.5
DKREQSEIAKEVLRMLLTGDPDQNHKLADKDVQFSVGDRTITGREDLDRWLREMHHHIDTQEVKSLDVNGEDVVIDVVATFNGVHMRFVIRVEVHNGRIVNMRMEVTSEETLKRVDG = -0.092

Quick note, protease stability score for DERQLKILVRILNAIHEGDPDTVKQLVDPNARVVIGDKVLHGMDEVRDTLHKWQEEQEVDLKDYRDNVHNGKADITAKAKVNQDGTPDHIRFKATAEFRNGRAKEVRINHDK landed at 1.09
